Values were extracted from patent US10906890B2.

# MEASUREMENT_TARGET: human APJ receptor (Homo sapiens (Human), UniProt P35414)
# Sequence (P35414 whole entry): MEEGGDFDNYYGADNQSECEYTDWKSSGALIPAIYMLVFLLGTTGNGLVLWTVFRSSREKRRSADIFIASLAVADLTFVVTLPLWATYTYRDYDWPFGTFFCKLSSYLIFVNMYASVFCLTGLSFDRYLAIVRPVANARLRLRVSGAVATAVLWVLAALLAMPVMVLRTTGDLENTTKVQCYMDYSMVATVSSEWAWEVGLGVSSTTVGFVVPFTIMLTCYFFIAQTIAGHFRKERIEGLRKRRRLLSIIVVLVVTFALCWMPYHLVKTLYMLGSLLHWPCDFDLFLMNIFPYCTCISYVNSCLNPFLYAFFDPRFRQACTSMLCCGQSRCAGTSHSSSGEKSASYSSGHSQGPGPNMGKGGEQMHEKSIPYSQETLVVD
# ASSAY_SUMMARY: [35S]GTPγS binding assay on membranes from CHO cells stably expressing human APJ receptor
# CONDITION_SUMMARY: means of several independent experiments, read-out: Activity hAPJ SPA EC50 IP
As shown below, each of these compounds has a reported EC50 value.
Use nM as the unit, but write only the number.

Observe how each entry below is paired with its result.
COc1cccc(OC)c1-n1c(NS(=O)(=O)[C@@H](C)[C@H](OC)c2ncc(C)cn2)nnc1-c1cc(C(F)(F)F)cc(C(F)(F)F)c1 : 4.7
C[C@H](c1ncc(Cl)cn1)[C@H](C)S(=O)(=O)Nc1nnc(-c2ccccc2)n1C1CCOCC1 : 69

Lookup: Can you look up the measured EC50 of COc1cccc(OC)c1-n1c(NS(=O)(=O)[C@H]2C[C@@H](OC(C)C)CN(c3ncc(F)cn3)C2)nnc1-c1ccccc1 (single isomer, unassigned) [Example 58.0] for me?
Found: 0.94
